- SYSTEM_UNDER_TEST: T1, human TREM2 (human, UniProt Q9NZC2 19-174, limits assumed)
- T1 construct: also called triggering receptor expressed on myeloid cells 2
- T1 sequence: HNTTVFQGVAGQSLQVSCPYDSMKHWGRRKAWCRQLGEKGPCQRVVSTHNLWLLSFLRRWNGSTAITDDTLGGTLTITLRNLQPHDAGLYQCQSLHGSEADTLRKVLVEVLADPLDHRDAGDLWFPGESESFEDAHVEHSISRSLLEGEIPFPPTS
- EXPERIMENT_SUMMARY: 2nd screen, 10 nM

BINDER	Binding Signal
V40 (antibody, V domains shown, also called 6E7 variant V40) VH: EVQLVQSGAEVKKPGESLKISCKGSGYSFGSYWIAWVRQMPGKGLEWMGIIYPGDSDVRYSPSFQGQVTISADKSISTAYLQWSSLKASDTAMYFCARQRTFYYDSSDYSDYWGQGTLVTVSS VL: DIQMTQSPSSVSASVGDRVTITCRASQGISSWLAWYQQKPGKAPKLLIYAASSLQLGVPSRFSGSGSGTDFTLTISSLQPEDFATYFCQQADRFPRTFGQGTKLEIK	4.16 fold over 6E7 parental antibody
V60 (antibody, V domains shown, also called 6E7 variant V60; LV-108/HV-108) VH: EVQLVQSGAEVKKPGESLKISCKGSGYHFTSYWIAWVRQMPGKGLEWMGIIYPGDSDVRYSPSFQGQVTISADKSISTAYLQWSSLKASDTAMYFCARQRTFYYDSSDYSDYWGQGTLVTVSS VL: DIQMTQSPSSVSASVGDRVTITCRASQGISSWLAWYQQKPGKAPKLLIYAASSLQRGVPSRFSGSGSGTDFTLTISSLQPEDFATYFCGQADSFPRTFGQGTKLEIK	3.63 fold over 6E7 parental antibody
V53 (antibody, V domains shown, also called 6E7 variant V53) VH: EVQLVQSGAEVKKPGESLKISCKGSGYSFTSYWIAWVRQMPGKGLEWMGIIYPGDSDTRYSPHFQGQVTISADKSISTAYLQWSSLKASDTAMYFCARQRTFYYDSSDYFDYWGQGTLVTVSS VL: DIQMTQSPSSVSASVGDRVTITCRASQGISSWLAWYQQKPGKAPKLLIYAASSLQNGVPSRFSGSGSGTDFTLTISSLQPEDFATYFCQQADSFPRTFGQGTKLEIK	1.17 fold over 6E7 parental antibody
